Test system: MCF7 breast
protocol: NCI-60 one-dose screen, 48 h
runParameters: 10 µM unless noted
Compounds without any hit were thinned out: in the full panel of roughly 83,000, 20% have a hit. Activity calls are given as the source filed them. The calls were made as follows: active = growth percent below 10; inactive = the rest.
Classes used: t (active), f (inactive)

> print(dat)
                                    compound  label
 1      C#Cc1cccc(NC(=O)c2ccccc2NC(=O)C=C)c1      f
 2            CCc1c(Nc2ccccc2C)nc(N)[nH]c1=O      f
 3  O=C(Cc1ccc(/C=C/C(=O)c2ncc[nH]2)cc1)Nc1ccccc1      t
 4  CC1(C)CC[C@]2(C(=O)Nc3ccccn3)CC[C@]3(C)C(=CC[C@@H]4[C@@]5(C)C/C(=C/c6cccnc6)C(=O)C(C)(C)[C@@H]5CC[C@]43C)[C@H]2C1      f
 5  O=C(COc1ccc(/C=C2\CSc3ccccc3C2=O)cc1)Nc1nccs1      t
 6  O=C(O)c1ccc(NC(=O)c2ccc(-c3cccc([N+](=O)[O-])c3)o2)cc1      f
 7  COc1cccc(-c2nn(C(C)(C)C)cc2-c2ccnc(NCCCNS(=O)(=O)c3cccc4ccccc34)c2)c1      f
 8  COc1ccc(CN2c3ccccc3Sc3ccccc32)c(C(F)(F)F)c1      f
 9  N#Cc1nnn(-c2ccc(S(N)(=O)=O)cc2)c1NC(=O)CCl      f
10  CN(C)c1ccc(NC(=O)c2ccc(/C=C/C(=O)c3ncc[nH]3)cc2)cc1      f
11   C#CCOc1ccc2ncnc(N3CCN(C(=O)CCl)CC3)c2c1      f
12  COc1cc(/C=C/C(=O)c2cccnc2Nc2ccc(F)cc2)cc(OC)c1OC      t
13  CNC(=O)c1cc(Oc2ccc(NC(=O)Nc3ccc(Cl)c(SC)c3)c(F)c2)ccn1      f
14  COc1cccc(NC(=O)c2sc3nc(C)c(C(C)=O)cc3c2N)c1      f
15     CSc1ccc(-c2n[nH]nc2-c2cc3ccccc3s2)cc1      f
16  CCOc1ccc(C(C)=O)cc1NC(=O)c1cccc(-c2nnn(CC)n2)c1      f
17  COc1ccc(S(=O)(=O)N2CCCCC2)cc1NC(=O)c1[nH]c(C)c2c1CCCCC2=O      f
18  COc1cc(/C=C/c2cc(/C=C/c3ccc(O)c(OC)c3)n(-c3c(Cl)cccc3Cl)c(=O)n2)ccc1O      f
19  CN1CCN(CCCOc2cccc3nc(Nc4cc(Cl)cc(Cl)c4)ccc23)CC1      t
20  OCC(O)c1nc2ccc3[nH]ncc3c2c2c1CCCC2 (stereo unspecified)      t
21  O=C(O)c1ccc(N=CC(=O)c2ccc(-c3ccccc3)cc2)cc1      f

* * *

Test system: A549/ATCC NSCLC
protocol: NCI-60 one-dose screen, 48 h
runParameters: 10 µM unless noted
Experimental: Growth inhibition of the A549/ATCC human Non-Small Cell Lung tumor cell line is measured as a screen for anti-cancer activity. Cells are grown in 96 well plates and exposed to the test compound for 48 hours. Compounds are tested at a single concentration, which is 10^-5 M for most compounds. The reported endpoint is percent growth (GI% or GIPRCNT), where numbers from 0 - 100% represent growth inhibition, and numbers from -100% - 0 represent cell death. […]
The panel holds about 83,000 compounds, 20% with a hit somewhere; the sample as a whole holds those more often. Calls of active or inactive are those of the source. The calls were made as follows: active = growth percent below 10; inactive = the rest.
Classes used: 1 (yes) for active, 0 (no) for inactive

molecule	label
c1csc(C2=NN3C(C2)c2ccccc2OC3c2ccncc2)c1 (stereo not drawn)	0 (no)
Cn1cc(-c2nonc2-c2cn(C)c3ccc(F)cc23)c2cc(F)ccc21	0 (no)
O=C(Cc1ccccc1Nc1c(Cl)cccc1Cl)NN1C(=O)/C(=C/c2ccc(Br)cc2)SC1=S	0 (no)
Nc1n[nH]c2ccc([C@@H]3Nc4cc5c(cc4[C@H]4C6CCC(C6)[C@@H]34)C(=O)NC5)cc12 (stereo partly drawn)	0 (no)
C=CC(=O)Nc1cccc(-c2nc(SC)nc(NCCN3CCOCC3)c2C#N)c1	0 (no)
CC[C@H]1OC(=O)[C@H](C)[C@@H](O[C@H]2C[C@@](C)(OC)[C@@H](O)[C@H](C)O2)[C@H](C)[C@@H](O[C@@H]2O[C@H](C)C[C@H](N(C)C)[C@H]2O)[C@](C)(O)C[C@H](C)CN(C)[C@H](C)[C@@H](O)[C@]1(C)O	0 (no)
Cn1c(NCCc2ccc(O)c(O)c2)nc2c1c(=O)n(Cc1ccc(Br)cc1)c(=O)n2C	0 (no)
OCc1ccc(N2CCc3cccc(F)c3C2)cc1Cl	0 (no)
COc1cc(-c2nn(C)nc2-c2cc3ccccc3s2)cc(OC)c1OC	0 (no)
Cc1ncc(C(=O)Nc2ccc(CN3CCN(C)CC3)c(C(F)(F)F)c2)cc1C#Cc1cnc2cccnn12	1 (yes)
Cn1ccnc1C(=O)/C=C/c1ccc(CC(=O)Nc2ccccc2)cc1	1 (yes)
COc1ccc(C(=O)COc2ccc(/C=C3\Oc4ccc(OC)cc4C3=O)cc2)cc1	0 (no)
Cc1cc(N2CCOCC2)nc(N[C@@H]2CCC[C@H](Nc3ccnc4cc(Cl)ccc34)C2)n1	0 (no)
COc1cccc(/C=N/NC(=O)c2ccccc2Nc2ccnc(C(F)(F)F)c2)c1O	0 (no)
Oc1cccc(-c2nc(N3CCOCC3)c3c4c(sc3n2)CCCC4)c1	0 (no)
COc1ccc(CN2c3ccccc3Oc3ccccc32)cc1O	0 (no)
CC(C)(C)c1cc(C(C)(C)C)cc(S(=O)(=O)Nc2cc3ccccc3cc2C(=O)NCCN)c1	0 (no)
Cn1c(O)c(N=NC(=O)c2cc(-c3ccccc3)on2)c2ccccc21	0 (no)
CC(=O)O[C@H]1[C@@H]2OC(=O)C(CSc3ccccc3)[C@@H]2C[C@H]2O[C@]2(C)CC/C=C(\C)CCC[C@@H]1C (stereo partly drawn)	0 (no)
CC1=C(O)C(=O)C(C(C#N)(C#N)C(C#N)C#N)C1 (stereo not drawn)	0 (no)
COc1ccccc1NS(=O)(=O)c1ccc2oc(SC(C)C)nc2c1	0 (no)
CC/C=C\C/C=C\C[C@H]1C/C=C2/C(=O)C=C[C@@H]2C/C=C\CCC(=O)O1	1 (yes)
O=C(CCCCC(=O)N/N=C\c1ccccc1O)N/N=C\c1ccccc1O	0 (no)
COc1ccc(Nc2nc(SC)nc(-c3cccc([N+](=O)[O-])c3)c2C#N)cc1	0 (no)
N#Cc1c(N)n(CCNC(=O)c2ccccc2)c2nc3ccccc3nc12	0 (no)
CC1C(/C=N/Nc2ccccc2)C(C#N)(C#N)C1(C#N)C#N (stereo not drawn)	0 (no)
O=C(CN1C(=O)/C(=C/c2ccc(Cl)cc2)SC1=S)NCCCN1CCOCC1	0 (no)
COc1cc2c(cc1-c1c(C)noc1C)ncc1nc(-c3ccccn3)n([C@H](C)COC(F)F)c12	0 (no)
CCOC(=O)c1c(C(=O)OCC)c2cc(-c3ccn4c(C(=O)c5ccccc5)c(C(=O)OCC)c(C(=O)OCC)c4c3)ccn2c1C(=O)c1ccccc1	0 (no)
O=C(COc1cccc(/C=C2\COc3ccc(Cl)cc3C2=O)c1)c1ccc(Cl)cc1	0 (no)
O=CNc1ccc2c(c1)Cc1cccc(NC=O)c1-2	0 (no)
CC(=O)OCCC/C(=C/c1cc2ccccc2c2ccccc12)[N+](=O)[O-]	1 (yes)
Nc1n[nH]c2cc(F)c([C@@H]3Nc4ccc5[nH]ncc5c4[C@H]4C5CCC(C5)[C@@H]34)cc12 (stereo partly drawn)	1 (yes)
COc1ccc(-n2nc(C)c3c(Nc4ccc(NC(=O)Nc5cc(C(F)(F)F)ccc5F)cc4)ncnc32)cc1	0 (no)
Cc1ccc(/C=C2\SC(=S)N(CC(=O)NCCCN3CCOCC3)C2=O)cc1	0 (no)
O=C(Cc1ccc(/C=C/C(=O)c2ncc[nH]2)cc1)Nc1ccccc1	0 (no)
N#Cc1c(-c2ccc(Cl)cc2)nc(N/N=C/c2cccc(Br)c2)nc1N1CCOCC1	0 (no)
COc1cc2nc(N3CCCC3)nc(Nc3ccccc3)c2cc1OC	1 (yes)

* * *

The compounds listed here are annotated with their growth.
Test system: SN12C renal
protocol: NCI-60 one-dose screen, 48 h (100 = growth as untreated, 0 = no growth, -100 = all killed)
runParameters: 10 µM unless noted
About 83,000 compounds went through this panel and 20% of them were active in at least one assay; those are over-represented in the sample as a whole.
parameter: growth (%)

> print(dat)
                                   compound  parameter  quantityunit  experimentalvalue
1     CC(=O)Oc1ccc(Cl)cc1CN(C(C)=O)C1CCCCC1     growth             %               97.3
2  CC(C)C1=C[C@@]23CC[C@@H]4[C@](C)(CCC[C@@]4(C)C(=O)N4CCCNCC4)[C@H]2C[C@@H]1[C@H]1C(=O)CCC(=O)[C@H]13     growth             %                102
3  COc1cc2c(cc1-c1c(C)noc1C)ncc1nc(C3CCOCC3)n([C@H](C)COC(F)F)c12     growth             %                 57
4  N#Cc1c(-c2ccc(Cl)cc2)nc(NN=Cc2ccco2)nc1N1CCOCC1     growth             %               82.1
5             Cc1ccc(OC(=O)c2ccc(Cl)cc2)cc1     growth             %               95.9
6  COc1ccc(CCNc2nc3c(c(=O)n(Cc4ccc(Br)cc4)c(=O)n3C)n2C)cc1OC     growth             %               91.1
7  O=C1c2cccc3cccc(c23)C(=O)N1CCCCN1CCN(CCCCOc2ccc(-c3nc4ccc(N5CCOCC5)cc4[nH]3)cc2)CC1     growth             %               94.7
8  Cn1cccc1-c1nc2c3c(ccc2[nH]1)C(=O)c1ccccc1C3=O     growth             %               91.9
9  COc1cc(C2CC(=O)c3ccccc3N2)cc(OC)c1OC (centres undefined)     growth             %                 92
